- subject-of-test: T1, HLA-A2 molecule (human)
- T1 construct: also called HLA-A2 on T2 cells (174CEM-T2; T2A2 cells)
- measurement-protocol: T2 cell binding assay: flow cytometry of surface HLA-A2 with anti-HLA-A2 mAb after incubation with peptide (50 µg/ml)
Entries and their T2 binding (relative fluorescence) values follow.

1. AIWGQDVTSV (also called I-93) [MUC-1 peptide analogue P-93I] ... 823 relative fluorescence values

// next item, T2 binding (relative fluorescence) requested
Prompt: Endpoint output: T2 binding (relative fluorescence) of AMWGQDVTSV [MUC-1 peptide analogue M-93] . Value?
Completion: 723 relative fluorescence values
